biological target: UniProt Q13627; test: DYRK1A kinase activity (Ser/Thr 18 peptide Z-lyte FRET assay); conditions: recombinant DYRK1A, 30 μM ATP, one hour at room temperature;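 also: kinase activity read as coumarin/fluorescein emission ratio after development step, with unphosphorylated and phosphorylated peptide forms setting 0% and 100% controls, values from dose-response curves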
pEC50: −log10 of the molar value.
Observation Type: pEC50

Example compounds with recorded pEC50:
Compound: O=C(Nc1ncc2ccc(-c3cccnc3)cc2n1)C1CC1 [Compound 1670]
pEC50: 8.22

Compound: CN1CCC(Oc2ccc(C(=O)Nc3cc4cc(-c5cnn(C)c5)cnc4cn3)cc2)CC1 [Compound 2865]
pEC50: 7.39

Compound: CN1CCN(Cc2cccc(C(=O)Nc3cc4cc(-c5cnn(C)c5)ncc4cn3)c2)CC1 [Compound 3799]
pEC50: 7.92

Compound: Nc1cncc(-c2ccc3cnc(NC(=O)c4ccc(OC5CCNCC5)cc4)cc3n2)c1 [Compound 804]
pEC50: 8.70

Compound: CC(C)OCCC(=O)Nc1cc2nc(-c3cncn3C)ccc2cn1 [Compound 416]
pEC50: 7.51

I = Cn1cc(-c2cnc3cnc(NC(=O)C4CCNCC4)cc3c2)cn1 [Compound 2731]
II = COC1CCN(CC(=O)Nc2cc3cc(-c4cn(C)nn4)ncc3cn2)CC1 [Compound 3985]
query: Between these two entries, I and II , state which has the higher pEC50. Write down the label of the entry you select.
result: I
(I: 7.68, II: 6.12)

---

tested on: α-smooth muscle actin (aSMA) positive LL29 cells; assay: Inhibition of the fibrotic process: αSMA staining in TGF-β1 treated LL29 fibroblasts from IPF patients; conditions: Homo sapiens, Fibroblast, read-out: percentage in parentheses after EC50 >10
Observation Type: inhibition at 10 µM (%)
Record the value in %, omitting the unit from your answer.

Example compounds with recorded inhibition at 10 µM:
Compound: Cn1cc(-c2cnc3cnc(NC(=O)CC4CNCCO4)cc3c2)cn1 (centres unmarked)
Tested Target: α-smooth muscle actin (aSMA) positive LL29 cells
Unit Abbreviation: %
Measured Value: 35.2
--
Compound: Cn1cc(-c2cnc3cnc(NC(=O)c4ccc5nccnc5c4)cc3c2)cn1
Tested Target: α-smooth muscle actin (aSMA) positive LL29 cells
Unit Abbreviation: %
Measured Value: 21.6
--
Compound: Cn1cncc1-c1cnc2cnc(NC(=O)c3ccc(F)cc3)cc2c1
Tested Target: α-smooth muscle actin (aSMA) positive LL29 cells
Unit Abbreviation: %
Measured Value: 10.2

Form: compound = CC(C)n1cc(C(=O)Nc2cc3nc(-c4cncc(NC5CCN(C)CC5)n4)ccc3cn2)cn1 ; inhibition at 10 µM = 31

Form: compound = Cn1cc(-c2ccc3cnc(NC(=O)c4ccnc(OC5CCNCC5)c4)nc3c2)cn1 ; inhibition at 10 µM = 28.6

---

Measured EC50, listed per entry.
system: α-smooth muscle actin (aSMA) positive LL29 cells; experiment: Inhibition of the fibrotic process: αSMA staining in TGF-β1 treated LL29 fibroblasts from IPF patients; details: Homo sapiens, Fibroblast, 96 h
Record the value in µM, omitting the unit from your answer.

Example compounds with recorded EC50:
Smiles Repr: CN(C)Cc1ccc(C(=O)Nc2ncc3ccc(-c4cnn(C)c4)cc3n2)cc1
Unit Abbreviation: µM
EC50: 3.92
//
Smiles Repr: O=C(Nc1cc2cc(-c3cncc(N[C@H]4CCNC[C@@H]4F)n3)cnc2cn1)C1CC1
Unit Abbreviation: µM
EC50: 3.01
//
Smiles Repr: CN1CCN(c2cc(C(=O)Nc3cc4nc(-c5cnn(C)c5)ccc4cn3)ccn2)CC1
Unit Abbreviation: µM
EC50: 0.41
//
Smiles Repr: O=C(Nc1cc2nc(-c3cnco3)ccc2cn1)c1ccc(OC2CCNCC2)cc1
Unit Abbreviation: µM
EC50: 0.325
//
Smiles Repr: Cn1cc(-c2ccc3cnc(NC(=O)[C@H]4CC[C@H](NC(=O)OC(C)(C)C)CC4)cc3n2)cn1
Unit Abbreviation: µM
EC50: 5.27

Now take the following compound into account.
Form: compound = Cc1ncc(-c2ccc3cnc(NC(=O)c4ccnc(N5CCN(C)CC5)c4)cc3n2)s1 ; EC50 = 1.43
